From: the supplement of paper PMC10567573

B1: KRT18 (parent)
chain: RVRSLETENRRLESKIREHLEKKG

Variants of: B1
Test: protein stability index of a GFP-peptide fusion (GPS, HEK-293T) (PSI 1-6); higher = more stable;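 further: lentivirally expressed fusions sorted by FACS into six bins by GFP to DsRed ratio, PSI derived from sequencing read proportions per bin multiplied by bin number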
Conditions: c terminus: a fixed tail appended
Note that class boundaries on protein stability index are bottom: < 4; middle: ≥ 4 and < 5; top: ≥ 5

- L12P: top
- L5C: bottom
- N9G: bottom
- E21A: middle
- H19G: top
- R3V: middle
- S4A: middle
- T7G: middle
- N9R: bottom
- G24H: middle
- E21M: middle
- R17D: top
- E13K: middle
- L12D: middle
- T7L: middle
- R10H: middle
- L12M: bottom
- L20I: middle
- G24P: middle
- E18D: middle
- L12E: top
- E18N: middle
- S14K: middle
- E6L: bottom
- R1Q: middle
- R1N: middle
